Cited source for all entries: paper PMC4714923

- Test Target: T1, Human FKBP51 (51-kDa FK506-binding protein) (human, UniProt Q13451 1-457)
- T1 sequence (looked up): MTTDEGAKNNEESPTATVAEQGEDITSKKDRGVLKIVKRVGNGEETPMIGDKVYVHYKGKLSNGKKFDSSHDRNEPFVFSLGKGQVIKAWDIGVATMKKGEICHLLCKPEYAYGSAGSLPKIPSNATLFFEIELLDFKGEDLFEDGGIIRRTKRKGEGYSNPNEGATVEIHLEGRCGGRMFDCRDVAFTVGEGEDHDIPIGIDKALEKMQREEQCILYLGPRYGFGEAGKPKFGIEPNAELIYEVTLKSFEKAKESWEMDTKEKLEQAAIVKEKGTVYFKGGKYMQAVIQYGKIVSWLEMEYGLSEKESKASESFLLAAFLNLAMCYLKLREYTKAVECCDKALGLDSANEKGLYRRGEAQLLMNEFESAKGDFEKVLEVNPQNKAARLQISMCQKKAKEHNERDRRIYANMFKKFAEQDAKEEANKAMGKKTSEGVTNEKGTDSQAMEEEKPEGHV
- Test Protocol: fluorescence polarisation
Where no end group is shown, it is not given here. 5‑Fam = 5-carboxyfluorescein; Ahx = NCCCCCC(=O)O
Kindly supply the reported Kd values for the records listed here.

Exercise: Item {5‑Fam-Ahx}-DDTSRMEKVD [Hsp90α Lys mutant tracer (Fam-DDTSRMEKVD)] has what recorded Kd?
Key: > 25 µM

Exercise: # input binder: {5‑Fam-Ahx}-DDTSRIEEVD [mutant Hsp90α tracer (Fam-DDTSRIEEVD)] ; wanted: its Kd
Key: > 25 µM

Exercise: Any idea what its Kd is? The binder is {5‑Fam-Ahx}-SSGPTIEEVD [Hsc70 C-terminal tracer (Fam-SSGPTIEEVD)]
Key: > 75 µM

Exercise: For {5‑Fam-Ahx}-DDTSRMEAVD [Hsp90α Ala mutant tracer (Fam-DDTSRMEAVD)] , what is its reported Kd?
Key: 4.63 µM

Would you kindly look at the next entry?
Exercise: // Kd lookup, key: {5‑Fam-Ahx}-GSGPTMEEVD [chimeric mutant Hsp72 tracer (Fam-GSGPTMEEVD)]
Key: > 75 µM
